These measurements were taken from PubChem BioAssay.

- MEASUREMENT_DESCRIPTION: fluorescence interference in NS3h assay format, artefact control for HCV NS3 helicase inhibitor project, biochemical, NIH Clinical Collection (AID 743272);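 also: HCV NS3 helicase with a Cy5 labelled single stranded DNA probe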
- COND: fluorescence interference counterscreen, stronger effect = lower value
READOUT_LABEL: fluorescence ratio
Note: the reply should be a number with no unit written.

I am curious: what fluorescence ratio value has been reported for CC12CCC(=O)C=C1CCC1C2CCC2(C)C(O)CCC12 (stereo not drawn) ?
1.01

###

- MEASUREMENT_DESCRIPTION: circadian clock period modulators, cell-based, LOPAC library, luminescence reporter (AID 2774);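 also: values are relative to mean of DMSO wells on each plate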
- COND: circadian reporter cells, at 7 µM, actives lie on both sides
The source made the active and inactive calls. The rule behind the calls is not given here.
READOUT_LABEL: period change

Item under review: `COC(=O)C1=CCCN(C)C1` . Reported period change?
-0.175 h (inactive)

Follow-up entry: `COc1ccc(-n2nc(C(F)(F)F)cc2-c2ccc(Cl)cc2)cc1`
0.125 h (inactive)

Follow-up item: `COc1cc(CCN)ccc1O`
-0.1 h (inactive)

Then this compound: `C=C(C)[C@H]1CN[C@H](C(=O)O)[C@H]1CC(=O)O`
0.025 h (inactive)

Another compound to check: `CO[C@H]1CC=C2CCN3CCC4=C(CC(=O)OC4)[C@]23C1`
0.065 h (inactive)

###

- MEASUREMENT_DESCRIPTION: CellTiter-Glo luminescent readout of SW480 viability loss, NPC library primary (AID 1117343)
- COND: CellTiter-Glo luminescence; at 20 µM (top of the series)
Active and inactive are the calls of the source.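 The calls were made as follows: active = compounds that lower viability of the colon cancer cells in the luminescence readout, with no numeric limit stated; inactive = the rest.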
Outcome field: choose from y (active), n (inactive)

Before answering, review these 3 worked examples.
COMPOUND	GROUP
COP(=O)(OC)OC=C(Cl)Cl	n
CC(=O)O[C@H]1C[C@H](O[C@H]2[C@@H](O)C[C@H](O[C@@H]3[C@@H](O)C[C@H](O[C@H]4CC[C@@]5(C)[C@H](CC[C@@H]6[C@H]5C[C@@H](O)[C@]5(C)[C@@H](C7=CC(=O)OC7)CC[C@]65O)C4)O[C@@H]3C)O[C@@H]2C)O[C@H](C)[C@H]1O[C@@H]1O[C@H](CO)[C@@H](O)[C@H](O)[C@@H]1O	y
C[C@H]1O[C@@H](O[C@H]2[C@@H](O)C[C@H](O[C@H]3[C@@H](O)C[C@H](O[C@H]4CC[C@@]5(C)[C@H](CC[C@@H]6[C@@H]5CC[C@]5(C)[C@@H](C7=CC(=O)OC7)CC[C@]65O)C4)O[C@@H]3C)O[C@@H]2C)C[C@H](O)[C@@H]1O	y

Each compound tested received a call. Report the one for NC1=NC(=O)C(c2ccccc2)O1 (stereo unspecified) .
n

Moving on to the next compound: `NN=C(N)N`
n

Ok, now C[N+]1(CCF)[C@@H]2CC[C@H]1CC(OC(=O)C(O)(c1ccccc1)c1ccccc1)C2 (stereo partly specified)
y

###

- MEASUREMENT_DESCRIPTION: sensitizers of A549 cells to miR-34 induction, primary screen, imaging, A549 dox-inducible miR-34, nuclei and caspase counts (AID 1347080)
- COND: A549 miR-34 inducible, Hoechst nuclei count, 48 h; measured here: total cells with miR-34 induction; stronger effect = lower value
READOUT_LABEL: cell count
Field format: numeric only.

Use these answered entries as a reference point.
>>> df
                                   compound   val
0  Cn1cc(C2=C(c3cn(C4CCN(Cc5ccccn5)CC4)c4ccccc34)C(=O)NC2=O)c2ccccc21  6030
1  CCCCC/C=C\C/C=C\C/C=C\C/C=C\CCCC(=O)NCCOP(=O)(O)O  5850
2  Clc1ccc(C2CC3CCC2N3)cn1 (stereo not given)  6010

So what's the measured cell count for this one? `CN1C2CCC1CC(=O)C2`
8780

For CO[C@H]1C=C2CCN(C)[C@H]2C2c3cc4c(cc3C(=O)O[C@@H]21)OCO4 (stereo not given in full) then?
9140

Repeat with `CN1CCN(c2ccc3ccccc3n2)CC1`
8930

Also CN1CC[C@@]23CCCCC2C1Cc1ccc(O)cc13 (stereo not given in full) , if possible.
9070

Now the compound `COc1cccc2ncn(Cc3cn4ccccc4n3)c(=O)c12`
9180

Please answer likewise for `O=C1CN=C(c2ccccc2)c2cc([N+](=O)[O-])ccc2N1`
9060

For `COc1ccc(N(C(=O)Oc2c(C)cccc2C)c2ccnc(Nc3ccc(N4CCN(C)CC4)cc3)n2)c(OC)c1` then?
5990
